System: SCLC strain SHP-77
Test: Colorimetric tetrazolium (MTT) assay for cell survival, SCLC strain SHP-77
Format: cell-based, human
Conditions: SCLC strain SHP-77 in vitro
PROPERTY: MTT: ED50 for killing of SCLC strain SHP-77 in vitro

Please review the following examples before continuing.
CN(C(=O)C(Cc1ccc(OCc2c(Cl)cccc2Cl)cc1)NC(=O)CCc1ccccc1)C1CC(C)(C)N(C)C(C)(C)C1 (centres unmarked) ... 7.5 µM
CN(C)c1cccc2c(S(=O)(=O)NC(Cc3ccc(OCc4c(Cl)cccc4Cl)cc3)C(=O)N(C)C3CC(C)(C)NC(C)(C)C3)cccc12 (centres unmarked) ... 1.4 µM
CN1CCN(NC(=O)C(Cc2ccc3ccccc3c2)NC(=O)C=Cc2ccc(N(C)C)cc2)CC1 (centres unmarked) ... 25 µM
CN(C)c1ccc(C=CC(=O)NC(Cc2ccc3ccccc3c2)C(=O)N2CCSCC2)cc1 (centres unmarked) ... 30 µM
CC1(C)CC(NC(=O)C(Cc2ccc3ccccc3c2)NC(=O)OC(C)(C)C)CC(C)(C)N1 (centres unmarked) [M288A] ... >85 µM

[ask] // MTT: ED50 for killing of SCLC strain SHP-77 in vitro lookup, key: CC1(C)CC(NC(=O)[C@H](Cc2ccc3ccccc3c2)NC(=NC2CCCCC2)NC2CCCCC2)CC(C)(C)N1
[reply] 15 µM

[ask] // MTT: ED50 for killing of SCLC strain SHP-77 in vitro lookup, key: CN(C)c1cccc2c(S(=O)(=O)NC(Cc3cc(I)c(OCc4c(Cl)cccc4Cl)c(I)c3)C(=O)N(C)C3CC(C)(C)NC(C)(C)C3)cccc12 (centres unmarked)
[reply] 1.3 µM

[ask] // MTT: ED50 for killing of SCLC strain SHP-77 in vitro lookup, key: CCOC(=O)CN1C(C)(C)CC(NC(=O)C(Cc2ccc3ccccc3c2)NC(=O)C(C2CCCCC2)C2CCCCC2)CC1(C)C (centres unmarked)
[reply] 2.6 µM

[ask] // MTT: ED50 for killing of SCLC strain SHP-77 in vitro lookup, key: O=C(C=Cc1c(F)c(F)c(F)c(F)c1F)NC(Cc1ccc2ccccc2c1)C(=O)NCc1cccnc1 (centres unmarked)
[reply] Inact

[ask] // MTT: ED50 for killing of SCLC strain SHP-77 in vitro lookup, key: CC1(C)CC(NC(=O)C(NC(=O)C=Cc2c(F)c(F)c(F)c(F)c2F)C(C)(C)C)CC(C)(C)N1 (centres unmarked)
[reply] Inact

* * *

Test system: SCLC strain SHP-77
Assay: Colorimetric tetrazolium (MTT) assay for cell survival, SCLC strain SHP-77
Assay type: cell-based, human
Details: SCLC strain SHP-77 in vitro
MTT: ED50 for killing of SCLC strain SHP-77 in vitro reference
Field: numeric (µM). Do not append units.

Please review the following examples before continuing.
CN(C(=O)C(Cc1ccc(OCc2c(Cl)cccc2Cl)cc1)NC(=O)C=Cc1c(F)c(F)c(F)c(F)c1F)C1CC(C)(C)N(C)C(C)(C)C1 (centres unmarked) ... 1.2
CC1(C)CC(NC(=O)[C@H](Cc2ccc3ccccc3c2)NC(=N)CCCCCCCCCCCCC(=N)N[C@@H](Cc2ccc3ccccc3c2)C(=O)NC2CC(C)(C)NC(C)(C)C2)CC(C)(C)N1 [M254] ... 5
COC(=O)CCCCCCCCC(=O)Nc1ccc(C=CC(=O)NC(Cc2csc3ccccc23)C(=O)NC2CC(C)(C)NC(C)(C)C2)cc1 (centres unmarked) ... 11

[ask] // MTT: ED50 for killing of SCLC strain SHP-77 in vitro lookup, key: CC1(C)CC(NC(=O)C(Cc2ccc(OCc3c(Cl)cccc3Cl)cc2)NC(=O)CN(CCN(CC(=O)NC(Cc2ccc(OCc3c(Cl)cccc3Cl)cc2)C(=O)NC2CC(C)(C)NC(C)(C)C2)CC(=O)NC(Cc2ccc(OCc3c(Cl)cccc3Cl)cc2)C(=O)NC2CC(C)(C)NC(C)(C)C2)CC(=O)NC(Cc2ccc(OCc3c(Cl)cccc3Cl)cc2)C(=O)NC2CC(C)(C)NC(C)(C)C2)CC(C)(C)N1 (centres unmarked)
[reply] 0.73

* * *

MTT: ED50 for killing of SCLC strain SHP-77 in vitro reference
System: SCLC strain SHP-77
Test: Colorimetric tetrazolium (MTT) assay for cell survival, SCLC strain SHP-77
Assay type: cell-based, human
Settings: SCLC strain SHP-77 in vitro
Field: numeric (µM). Do not append units.

CC1(C)CC(NC(=O)C(Cc2ccc(O)cc2)NC(=O)C=Cc2c(F)c(F)c(F)c(F)c2F)CC(C)(C)N1 (stereo not shown) ... 50

[ask] // MTT: ED50 for killing of SCLC strain SHP-77 in vitro lookup, key: CC1(C)CC(NC(=O)[C@@H](Cc2ccc3ccccc3c2)NC(=NC2CCCCC2)NC2CCCCC2)CC(C)(C)N1 [M262]
[reply] 6

* * *

MTT: ED50 for killing of SCLC strain SHP-77 in vitro reference
Tested on: SCLC strain SHP-77
Experiment: Colorimetric tetrazolium (MTT) assay for cell survival, SCLC strain SHP-77
Type: cell-based, human
Settings: SCLC strain SHP-77 in vitro
Field: numeric (µM). Do not append units.

Please review the following examples before continuing.
CN1CCN(NC(=O)C(Cc2ccc3ccccc3c2)NC(=O)c2cccc(NC(=O)C=Cc3c(F)c(F)c(F)c(F)c3F)c2)CC1 (stereo not drawn) ... 45
CC1(C)CC(NC(=O)C2CC3CCCCC3N2C(=O)C=Cc2c(F)c(F)c(F)c(F)c2F)CC(C)(C)N1 (stereo not drawn) ... 13
CN(C(=O)C(Cc1ccc(OCc2c(Cl)cccc2Cl)cc1)NC(=O)C=Cc1cccnc1)C1CC(C)(C)NC(C)(C)C1 (stereo not drawn) ... 3.7
CN(C)CCCNC(=O)C(Cc1ccc2ccccc2c1)NC(=O)C=Cc1c(F)c(F)c(F)c(F)c1F (stereo not drawn) ... 10

[ask] Record lookup: for SCLC strain SHP-77, what MTT: ED50 for killing of SCLC strain SHP-77 in vitro belongs to CN1CCN(NC(=O)[C@H](Cc2ccc3ccccc3c2)NC(=O)C=Cc2ccc(NC(=O)CCCCCCCCCCC(=O)O)cc2)CC1 ?
[reply] 45

[ask] Record lookup: for SCLC strain SHP-77, what MTT: ED50 for killing of SCLC strain SHP-77 in vitro belongs to O=C(NC1CN2CCC1CC2)C(Cc1ccc2ccccc2c1)NC(=NC1CCCCC1)NC1CCCCC1 (stereo not drawn) ?
[reply] 30

* * *

Molecular target: cloned human bradykinin B2 receptors (Homo sapiens)
Sequence (P30411 1-391): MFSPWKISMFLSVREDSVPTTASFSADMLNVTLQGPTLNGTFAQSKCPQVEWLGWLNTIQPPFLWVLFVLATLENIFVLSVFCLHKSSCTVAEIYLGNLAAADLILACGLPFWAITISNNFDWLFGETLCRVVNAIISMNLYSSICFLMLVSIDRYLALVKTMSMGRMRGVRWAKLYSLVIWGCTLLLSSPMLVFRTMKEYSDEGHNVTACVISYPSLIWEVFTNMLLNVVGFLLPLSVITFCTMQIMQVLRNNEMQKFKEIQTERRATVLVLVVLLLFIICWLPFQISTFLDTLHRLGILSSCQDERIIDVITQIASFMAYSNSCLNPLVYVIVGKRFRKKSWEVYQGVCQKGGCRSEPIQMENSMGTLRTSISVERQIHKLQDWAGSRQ
Experiment: Anti-bradykinin activity on cloned human B2 receptors (CHO cells, Cytosensor microphysiometer)
Assay type: cell-based
Settings: cloned human B2 receptors; pD2 for bradykinin is 11; higher numbers indicate higher potency
PROPERTY: HUMAN: pA2 for bradykinin antagonist potency on cloned human B2 receptors

COC(=O)CCCCCCCCC(=O)Nc1ccc(C=CC(=O)NC(C(=O)NC2CC(C)(C)NC(C)(C)C2)C2Cc3ccccc3C2)cc1 (stereo not shown) ... 12
CN1CCN(NC(=O)C(Cc2ccc3ccccc3c2)NC(=O)C=Cc2c(F)c(F)c(F)c(F)c2F)CC1 (stereo not shown) ... Inact
CC1(C)CC(NC(=O)C(Cc2csc3ccccc23)NC(=O)C=Cc2cccs2)CC(C)(C)N1 (stereo not shown) ... Inact
CN(C)c1ccc(CNC(=O)C(Cc2ccc3ccccc3c2)NC(=O)C=Cc2c(F)c(F)c(F)c(F)c2F)cc1 (stereo not shown) ... Inact

* * *

Tested on: SCLC strain SHP-77
Assay: Colorimetric tetrazolium (MTT) assay for cell survival, SCLC strain SHP-77
Format: cell-based, human
Conditions: SCLC strain SHP-77 in vitro
The label Fulfilled is reserved for MTT: ED50 for killing of SCLC strain SHP-77 in vitro strictly under 40 µM; Not fulfilled covers values equal to or above it.

CN(C)c1ccc(CNC(=O)C(Cc2ccc3ccccc3c2)NC(=O)C=Cc2c(F)c(F)c(F)c(F)c2F)cc1 (stereo not shown) [M536] ... Fulfilled
O=C(C=Cc1cccnc1)Nc1ccc(C(=O)NC(Cc2ccc3ccccc3c2)C(=O)O)cc1 (stereo not shown) [M422] ... Not fulfilled
O=C(C=Cc1cccnc1)NC(Cc1ccc2ccccc2c1)C(=O)Nc1cccc(CO)c1 (stereo not shown) [M474] ... Fulfilled
CC1(C)CC(NC(=O)[C@H](Cc2ccc3ccccc3c2)NC(=O)C(C2CCCCC2)C2CCCCC2)CC(C)(C)N1 [M276] ... Fulfilled
CC1(C)CC(NC(=O)C(Cc2cccnc2)NC(=O)C=Cc2c(F)c(F)c(F)c(F)c2F)CC(C)(C)N1 (stereo not shown) [M438] ... Fulfilled

[ask] Below 40 µM on MTT: ED50 for killing of SCLC strain SHP-77 in vitro? Entry CC1(C)CC(NC(=O)[C@@H](NC(=N)CCCCCCCCCCCCC(=O)O)C2Cc3ccccc3C2)CC(C)(C)N1 [M280-1]
[reply] Fulfilled
